System: AqSynJ59 strain
protocol-description: In vitro test of minimal inhibitory concentration (MIC) of antibiotics
Format: cell-based, Lactobacillus plantarum
condition-info: LAB susceptibility test medium pH 6.7, unit assumed

>  <structure>
CCC[C@@H]1C[C@@H](C(=O)N[C@@H]([C@H]2O[C@H](SC)[C@H](O)[C@@H](O)[C@H]2O)[C@H](C)Cl)N(C)C1

>  <MIC, LSM [µg/mL]>
0.125

$$$$
>  <structure>
O=C(N[C@H](CO)[C@H](O)c1ccc([N+](=O)[O-])cc1)C(Cl)Cl

>  <MIC, LSM [µg/mL]>
2

$$$$
>  <structure>
[H]/N=C(/N)N[C@H]1[C@H](O)[C@@H](O)[C@H](O[C@@H]2O[C@@H](C)[C@](O)(C=O)[C@H]2O[C@@H]2O[C@@H](CO)[C@H](O)[C@@H](O)[C@@H]2NC)[C@@H](N/C(N)=N\[H])[C@@H]1O

>  <MIC, LSM [µg/mL]>
32

$$$$
>  <structure>
CN(C)[C@@H]1C(O)=C(C(N)=O)C(=O)[C@@]2(O)C(O)=C3C(=O)c4c(O)cccc4[C@@](C)(O)[C@H]3C[C@@H]12

>  <MIC, LSM [µg/mL]>
4

$$$$
>  <structure>
NC[C@H]1O[C@H](O[C@H]2[C@H](O)[C@@H](O[C@H]3O[C@H](CO)[C@@H](O)[C@H](N)[C@H]3O)[C@H](N)C[C@@H]2N)[C@H](O)[C@@H](O)[C@@H]1O

>  <MIC, LSM [µg/mL]>
64

$$$$
>  <structure>
CN[C@H](CC(C)C)C(=O)N[C@H]1C(=O)N[C@@H](CC(N)=O)C(=O)N[C@H]2C(=O)N[C@H]3C(=O)N[C@H](C(=O)N[C@H](C(=O)O)c4cc(O)cc(O)c4-c4cc3ccc4O)[C@H](O)c3ccc(c(Cl)c3)Oc3cc2cc(c3O[C@@H]2O[C@H](CO)[C@@H](O)[C@H](O)[C@H]2O[C@H]2C[C@](C)(N)[C@H](O)[C@H](C)O2)Oc2ccc(cc2Cl)[C@H]1O

>  <MIC, LSM [µg/mL]>
512

$$$$
